Cited source for all entries: PubChem BioAssay (NCI)

# Test system: HOP-62 NSCLC
# experiment: NCI tumour cell line growth inhibition, 48 h
Below, each of the compounds is paired with its reported TGI value.

{"compound": "Cn1c2ccccc2n2c(=O)c3cc([N+](=O)[O-])ccc3c(C#N)c12", "TGI": "> 100 µM"}
{"compound": "COc1cc(C2=C(c3ccccc3)COC2=O)cc(OC)c1OC", "TGI": "> 100 µM"}
{"compound": "CCOC(=O)/C(C#N)=N\\Nc1ccc(-n2c(C)nc3ccccc3c2=O)cc1", "TGI": "> 100 µM"}
{"compound": "O=c1c2cc([N+](=O)[O-])ccc2sc2ccsc12", "TGI": "> 100 µM"}
{"compound": "N#Cc1cc([N+](=O)[O-])ccc1NC(=O)C(=O)Nc1n[nH]c(N)n1", "TGI": "> 100 µM"}
{"compound": "NC(=O)C(=CNC(=S)c1ccncc1)C(N)=O", "TGI": "> 100 µM"}
{"compound": "COC(=O)Cc1c([C@H]2[C@H](CC(=O)OC)c3ccccc3N2C(C)=O)[nH]c2ccccc12", "TGI": "> 100 µM"}
{"compound": "Cc1cc2ncc3c(=O)n(NS(=O)(=O)c4ccc(N)cc4)ccc3n2n1", "TGI": "> 100 µM"}
{"compound": "c1ccc(/C(=N/Nc2ccccn2)c2ncccn2)cc1", "TGI": "> 42.7 µM"}
{"compound": "COC(=O)c1c/c(=N\\NC(=O)CC(=O)Nc2ccccc2OC)c2ccccc2o1", "TGI": "> 100 µM"}
{"compound": "Cc1ccc2c(c1)[n+]([O-])c(N)n[n+]2[O-]", "TGI": "> 100 µM"}
{"compound": "CC1(C)CNC(=O)C2(C=NC(C)(C)CNC(=O)C3(C=N1)CCCO3)CCCO2 (configuration not stated)", "TGI": "> 10 µM"}
